Tested on: Key Broadleaf Weed and Crop Species
Experiment: Post-emergent Test II herbicidal activity (Table 15)
Type: in vivo
Conditions: Brassica napus, post-emergence, 336 h, oilseed rape, canola (Brassica napus), 70 g ai/ha, 14 d, read-out: Visual Growth Reduction (%) 14 Days After Application, BRSNN
Attribute Measured: pest or weed control at 70 g/ha

Worked examples follow.
{"Structure": "COC(=O)c1nc(-c2ccc3cc[nH]c3c2F)c(F)c(N)c1OC", "Tested On": "Key Broadleaf Weed and Crop Species", "Reading": "95 to 100%"}
{"Structure": "COc1c(N)nc(-c2ccc3cc[nH]c3c2)nc1C(=O)O", "Tested On": "Key Broadleaf Weed and Crop Species", "Reading": "95 to 100%"}

Problem: Entry under review: COC(=O)c1nc(-c2cccc3c2cnn3C)c(F)c(N)c1Cl . Reported pest or weed control at 70 g/ha?
Solution: 0 to 29%

Problem: Cool, now Cc1c(-c2ccc3ccsc3c2)nc(C(=O)O)c(Cl)c1N
Solution: 0 to 29%

Problem: Continue with COC(=O)c1nc(-c2ccc3c(ccn3C)c2)c(F)c(N)c1Cl
Solution: 0 to 29%

Problem: Lookup COC(=O)c1nc(-c2ccc(Cl)c3ccoc23)nc(N)c1OC
Solution: 60 to 74%

Problem: Another compound: COC(=O)c1nc(-c2cc3occc3cc2F)c(F)c(N)c1Cl
Solution: 60 to 74%
